# tested.target: human OT7T175 (metastin receptor) (human, UniProt Q969F8 1-398)
# Sequence (Q969F8 whole entry L364H): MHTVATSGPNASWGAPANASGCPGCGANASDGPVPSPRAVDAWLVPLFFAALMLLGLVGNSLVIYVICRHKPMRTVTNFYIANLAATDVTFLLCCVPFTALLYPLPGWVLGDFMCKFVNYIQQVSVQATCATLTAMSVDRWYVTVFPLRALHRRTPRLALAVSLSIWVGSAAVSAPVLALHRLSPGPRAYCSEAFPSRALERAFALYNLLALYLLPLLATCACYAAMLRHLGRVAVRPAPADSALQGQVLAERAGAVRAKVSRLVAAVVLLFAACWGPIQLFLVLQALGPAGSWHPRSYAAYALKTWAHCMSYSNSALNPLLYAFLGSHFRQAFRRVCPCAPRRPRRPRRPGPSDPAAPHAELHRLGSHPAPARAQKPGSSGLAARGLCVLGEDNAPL
# protocol.description: cell-based or functional assay
Non-standard residues stand in square brackets, D forms with d. No end group written: not given here. Arg(Me) = CNC(=N)NCCC[C@H](N)C(=O)O; Orn = NCCC[C@H](N)C(=O)O; azaGly = NNC(=O)O

binder	Ca ion level-increasing activity (FLIPR)
YNWNSFGL[Orn]F-NH2 (N-terminus assumed; SMILES CC(C)C[C@H](NC(=O)CNC(=O)[C@H](Cc1ccccc1)NC(=O)[C@H](CO)NC(=O)[C@H](CC(N)=O)NC(=O)[C@H](Cc1c[nH]c2ccccc12)NC(=O)[C@H](CC(N)=O)NC(=O)[C@@H](N)Cc1ccc(O)cc1)C(=O)N[C@@H](CCCN)C(=O)N[C@@H](Cc1ccccc1)C(N)=O, also called Compound No. 314) [[Orn9]MS10]	1 x Metastin (1-54)
Ac-WNSF[azaGly]L[Arg(Me)]F-NH2 (SMILES CNC(=N)NCCC[C@H](NC(=O)[C@H](CC(C)C)NC(=O)NNC(=O)[C@H](Cc1ccccc1)NC(=O)[C@H](CO)NC(=O)[C@H](CC(N)=O)NC(=O)[C@H](Cc1c[nH]c2ccccc12)NC(C)=O)C(=O)N[C@@H](Cc1ccccc1)C(N)=O, also called Compound No. 272) [des(1-2)-Acetyl-[AzaGly7,Arg(Me)9]MS10]	2 x Metastin (1-54)
WNSF[azaGly]LR(Me)F-NH2 (N-terminus assumed; SMILES CNC(=N)NCCC[C@H](NC(=O)[C@H](CC(C)C)NC(=O)NNC(=O)[C@H](Cc1ccccc1)NC(=O)[C@H](CO)NC(=O)[C@H](CC(N)=O)NC(=O)[C@@H](N)Cc1c[nH]c2ccccc12)C(=O)N[C@@H](Cc1ccccc1)C(N)=O, also called Compound No. 271) [des(1-2)-[AzaGly7,Arg(Me)9]MS10]	1 x Metastin (1-54)
{4‑imidazoleacetyl}-NSF[azaGly]L[Arg(Me)]F-NH2 (also called Compound No. 323) [des(1-3)-4-Imidazoleacetyl-[AzaGly7,Arg(Me)9]MS10]	1 x Metastin (1-54)

Where do these numbers come from? They come from patent US20090298765A1.
